Log Ki by entry:
SYSTEM_NAME: Serotonin 3 (5-HT3) receptor
TEST_DESCRIPTION: Binding affinity for the 5-hydroxytryptamine 3 receptor was evaluated in vitro by examining its ability to displace [3H]-BRL 43694.
Assay type: protein-complex assay
Reply briefly: the number, and no unit.

# annotated cases, reported Log Ki shown
CPD_SMILES | SYSTEM_NAME | TEST_VALUE
Cn1nc(C(=O)NCCc2c[nH]cn2)c2ccccc21 | Serotonin 3 (5-HT3) receptor | -7.84
COc1ccc(F)cc1NC(=O)NCCc1c[nH]cn1 | Serotonin 3 (5-HT3) receptor | -7.69
COc1ccc(Cl)cc1NC(=O)NCCc1c[nH]cn1 | Serotonin 3 (5-HT3) receptor | -8.86
COc1cc(F)ccc1NC(=O)NCCc1c[nH]cn1 | Serotonin 3 (5-HT3) receptor | -7.39
CCOc1ccccc1NC(=O)NCCc1c[nH]cn1 | Serotonin 3 (5-HT3) receptor | -7.35

Next item in the queue.
Request: Report measured Log Ki; entry is `COc1ccccc1NC(=O)NCCc1c[nH]cn1`
Result: -7.55

Data credit: ChEMBL document CHEMBL1127179
